Where do these numbers come from? They come from PubChem BioAssay AID1549.

target.of.assay: Influenza A virus M2 proton channel (A/TW/4845/1999 H1N1)
measurement.description: M2 proton channel binding, NMR based, influenza A virus H1N1 strain (AID 1549)
condition.summary: NMR binding screen, M2 protein
The source made the active and inactive calls. No rule for the calls is given here.
Recorded Kd by entry

Reference set (6 entries):
Cc1c(C)[n+](=O)c(-c2cccs2)c(C)n1[O-] ... > 4 mM (inactive)
Cc1ccc(-c2nnn(CC(=O)O)n2)cc1 ... > 4 mM (inactive)
NC(Cc1c[nH]c2ccccc12)C(=O)O (stereo not given) ... > 4 mM (inactive)
CCOc1ccccc1C(=O)NC1=NCCS1 ... > 4 mM (inactive)
O=C(Nc1ccc2c(c1)OCO2)c1c(F)cccc1F ... > 4 mM (inactive)
COc1ccccc1C(=O)Nc1ccccn1 ... > 4 mM (inactive)

Input line: Assign Kd to the following record: O=C(Nc1ncccn1)c1cccc(F)c1
Output line: > 4 mM (inactive)

Input line: Assign Kd to the following record: CC1=C(CCC(=O)O)c2cc3nc(cc4[nH]c(cc5[nH]c(cc1n2)c(C)c5C(C)O)c(C)c4C(C)O)C(C)=C3CCC(=O)O (stereo not given)
Output line: > 4 mM (inactive)

Input line: Assign Kd to the following record: Nc1ccc(S(=O)(=O)Nc2ccc(F)cc2F)cc1
Output line: > 4 mM (inactive)

Input line: Assign Kd to the following record: O=c1[nH]c(=S)[nH]c2c1CCC2
Output line: > 4 mM (inactive)
